# target-desc: T1, ZIKV (prM80E) with a C-terminal myc-myc-hexahistidine tag (Zika virus, UniProt A0A024B7W1 104-694)
# T1 construct: also called ZIKV (prM80E)-mmH; ZIKV-mmH
# procedure-summary: SPR, mAb captured, 37C
Entries and their t½ values follow.

binder	unit-info	t½
H4H25598P (antibody, V domains shown) VH: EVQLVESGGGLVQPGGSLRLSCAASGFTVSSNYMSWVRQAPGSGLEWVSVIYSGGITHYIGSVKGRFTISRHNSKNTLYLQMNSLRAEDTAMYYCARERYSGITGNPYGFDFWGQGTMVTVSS VL: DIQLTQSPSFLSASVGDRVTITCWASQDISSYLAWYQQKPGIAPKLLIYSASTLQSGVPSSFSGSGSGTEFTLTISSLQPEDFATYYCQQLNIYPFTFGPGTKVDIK	min	40.7
H4H25566P (antibody, V domains shown) VH: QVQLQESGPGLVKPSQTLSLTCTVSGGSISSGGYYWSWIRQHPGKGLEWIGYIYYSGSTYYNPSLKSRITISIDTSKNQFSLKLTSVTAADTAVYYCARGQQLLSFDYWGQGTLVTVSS VL: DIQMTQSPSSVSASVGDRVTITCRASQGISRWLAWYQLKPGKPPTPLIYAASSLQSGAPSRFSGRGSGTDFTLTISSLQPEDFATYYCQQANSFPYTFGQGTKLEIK	min	0.3
H4H25633P (antibody, V domains shown) VH: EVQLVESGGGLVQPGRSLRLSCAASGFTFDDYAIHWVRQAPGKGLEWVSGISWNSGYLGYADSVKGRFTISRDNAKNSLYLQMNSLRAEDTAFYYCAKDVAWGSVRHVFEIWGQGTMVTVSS VL: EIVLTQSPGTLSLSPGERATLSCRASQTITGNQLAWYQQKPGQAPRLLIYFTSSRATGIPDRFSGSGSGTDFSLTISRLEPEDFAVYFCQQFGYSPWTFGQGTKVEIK	min	2.3
H4H25640P (antibody, V domains shown) VH: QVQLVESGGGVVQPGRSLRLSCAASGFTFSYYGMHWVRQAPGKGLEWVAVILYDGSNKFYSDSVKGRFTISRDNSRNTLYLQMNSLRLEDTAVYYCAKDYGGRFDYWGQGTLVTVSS VL: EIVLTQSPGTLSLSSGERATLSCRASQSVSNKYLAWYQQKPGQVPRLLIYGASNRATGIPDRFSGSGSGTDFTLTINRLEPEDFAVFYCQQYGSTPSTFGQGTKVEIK	min	6.2
H4H25602P (antibody, V domains shown) VH: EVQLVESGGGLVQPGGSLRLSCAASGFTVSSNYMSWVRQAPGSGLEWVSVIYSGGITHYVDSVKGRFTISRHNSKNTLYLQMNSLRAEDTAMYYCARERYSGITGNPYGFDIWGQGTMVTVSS VL: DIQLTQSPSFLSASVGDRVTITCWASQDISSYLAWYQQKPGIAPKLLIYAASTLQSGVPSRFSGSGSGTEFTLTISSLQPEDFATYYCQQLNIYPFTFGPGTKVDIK	min	40.6
